Recorded % Lactone values for a group of compounds are listed next.
Test: Lactone ring stability in PBS by HPLC
Assay type: physicochemical
Conditions: PBS pH 7.4, 24 hours, 37° C., 1 μM
ENDPOINT: % Lactone (%)

> print(dat)
                                   compound  number
1  CCC1(O)CC(=O)OCc2c1cc1n(c2=O)Cc2c-1nc1ccc(N)cc1c2[Si](C)(C)C (racemic)    26.8
2  CCC1(O)CC(=O)OCc2c1cc1n(c2=O)Cc2c-1nc1ccc(O)cc1c2[Si](C)(C)C(C)(C)C (racemic)    32.2
3  CCC1(O)CC(=O)OCc2c1cc1n(c2=O)Cc2c-1nc1ccc(N)cc1c2[Si](C)(C)C(C)(C)C (racemic)    26.1
4  CCC1(O)CC(=O)OCc2c1cc1n(c2=O)Cc2c-1nc1ccccc1c2[Si](C)(C)C(C)(C)C (racemic)    30.9

====

Assay: Lactone ring stability in mouse blood by HPLC
Conditions: mouse blood, pH 7.4, 37° C.
Recorded Percent Lactone in Mouse Blood after 3 Hours of Incubation values for a group of molecules are listed next.
ENDPOINT: Percent Lactone in Mouse Blood after 3 Hours of Incubation (%)

> print(dat)
                                   molecule  number
1  CCC1(O)CC(=O)OCc2c1cc1n(c2=O)Cc2c-1nc1ccc(O)cc1c2[Si](C)(C)C(C)(C)C (racemic)      70
2  CC[C@@]1(O)C(=O)OCc2c1cc1n(c2=O)Cc2cc3ccccc3nc2-1      20
3  CC[C@@]1(O)C(=O)OCc2c1cc1n(c2=O)Cc2cc3c(N)cccc3nc2-1      38
4  CCC1(O)CC(=O)OCc2c1cc1n(c2=O)Cc2c-1nc1ccccc1c2[Si](C)(C)C(C)(C)C (racemic)      80
5  CCC1(O)CC(=O)OCc2c1cc1n(c2=O)Cc2c-1nc1ccc(N)cc1c2[Si](C)(C)C(C)(C)C (racemic)      61
6  CCC1(O)CC(=O)OCc2c1cc1n(c2=O)Cc2c-1nc1ccc(N)cc1c2[Si](C)(C)C (racemic)      72

====

Assay: Lactone ring stability in PBS suspensions of albumin-free red blood cells by HPLC
Type: in vitro ADME, human
Conditions: albumin-free RBC in PBS (5±1)×10^6 cell/μL, 24 hours, 37° C.
ENDPOINT: % Lactone (%)

> print(dat)
                                   compound  number
1  CCC1(O)CC(=O)OCc2c1cc1n(c2=O)Cc2c-1nc1ccccc1c2[Si](C)(C)C(C)(C)C (racemic) [DB-81]    55.8
2  CCC1(O)CC(=O)OCc2c1cc1n(c2=O)Cc2c-1nc1ccc(N)cc1c2[Si](C)(C)C (racemic) [DB-38]    39.4
3  CCC1(O)CC(=O)OCc2c1cc1n(c2=O)Cc2c-1nc1ccc(O)cc1c2[Si](C)(C)C(C)(C)C (racemic) [DB-91]    42.6
4  CCC1(O)CC(=O)OCc2c1cc1n(c2=O)Cc2c-1nc1ccc(N)cc1c2[Si](C)(C)C(C)(C)C (racemic) [DB-90]    38.5

====

Recorded % Lactone values for a group of compounds are listed next.
Assay: Lactone ring stability in human plasma by HPLC
Format: in vitro ADME
Conditions: 3 hours, 37° C., pH 7.5, 1 μM
ENDPOINT: % Lactone (%)

> print(dat)
                                   compound   endpoint  number
1  CCC1(O)CC(=O)OCc2c1cc1n(c2=O)Cc2c-1nc1ccc(N)cc1c2[Si](C)(C)C(C)(C)C (racemic)  % Lactone    71.1
2  CCC1(O)CC(=O)OCc2c1cc1n(c2=O)Cc2c-1nc1ccc(N)cc1c2[Si](C)(C)C (racemic)  % Lactone    40.3
3  CCC1(O)CC(=O)OCc2c1cc1n(c2=O)Cc2c-1nc1ccc(O)cc1c2[Si](C)(C)C(C)(C)C (racemic)  % Lactone    61.5
4  CCC1(O)CC(=O)OCc2c1cc1n(c2=O)Cc2c-1nc1ccccc1c2[Si](C)(C)C(C)(C)C (racemic)  % Lactone    85.0

====

Experiment: Lactone ring stability in PBS by HPLC
Type: physicochemical
Details: PBS pH 7.4, 3 hours, 37° C., 1 μM
ENDPOINT: % Lactone

> print(dat)
                                   compound   endpoint             result
1  CCC1(O)CC(=O)OCc2c1cc1n(c2=O)Cc2c-1nc1ccccc1c2[Si](C)(C)C(C)(C)C (racemic) [DB-81]  % Lactone        84.9 ± 0.3%
2  CC[C@@]1(O)C(=O)OCc2c1cc1n(c2=O)Cc2cc3c(CN(C)C)c(O)ccc3nc2-1 [Topotecan, reference compound]  % Lactone  approximately 12%
3  CCC1(O)CC(=O)OCc2c1cc1n(c2=O)Cc2c-1nc1ccc(N)cc1c2[Si](C)(C)C (racemic) [DB-38]  % Lactone        82.8 ± 0.7%
4  CCC1(O)CC(=O)OCc2c1cc1n(c2=O)Cc2c-1nc1ccc(O)cc1c2[Si](C)(C)C(C)(C)C (racemic) [DB-91]  % Lactone        83.1 ± 0.3%
5  CC[C@@]1(O)C(=O)OCc2c1cc1n(c2=O)Cc2cc3ccccc3nc2-1 [Camptothecin]  % Lactone  approximately 12%
6  CCC1(O)CC(=O)OCc2c1cc1n(c2=O)Cc2c-1nc1ccc(N)cc1c2[Si](C)(C)C(C)(C)C (racemic) [DB-90]  % Lactone        83.7 ± 0.5%

====

Test: Lactone ring stability in whole human blood by HPLC
Conditions: human blood, pH 7.4, 37° C. (Table 4)
Strictly below 60% in Percent Lactone in Human Blood after 3 Hours of Incubation: Satisfied. Otherwise: Not satisfied.

> print(dat)
                                   molecule  discrete.label
1  CCC1(O)CC(=O)OCc2c1cc1n(c2=O)Cc2c-1nc1ccc(N)cc1c2[Si](C)(C)C(C)(C)C (racemic) [DB-90]   Not satisfied
2  CCC1(O)CC(=O)OCc2c1cc1n(c2=O)Cc2c-1nc1ccccc1c2[Si](C)(C)C(C)(C)C (racemic) [DB-81]   Not satisfied
3  CCC1(O)CC(=O)OCc2c1cc1n(c2=O)Cc2c-1nc1ccc(N)cc1c2[Si](C)(C)C (racemic) [DB-38]       Satisfied
4  CCC1(O)CC(=O)OCc2c1cc1n(c2=O)Cc2c-1nc1ccc(O)cc1c2[Si](C)(C)C(C)(C)C (racemic) [DB-91]   Not satisfied
5  CC[C@@]1(O)C(=O)OCc2c1cc1n(c2=O)Cc2cc3c(N)cccc3nc2-1 [9-Aminocamptothecin, 9-aminocamptothecin]       Satisfied
6  CC[C@@]1(O)C(=O)OCc2c1cc1n(c2=O)Cc2cc3ccccc3nc2-1 [Camptothecin]       Satisfied
